# System: K562 CRISPRi cells
# Method Summary: Perturb-seq pooled growth measurement (sgRNA counts, growth phenotype γ, relative activity)
# Format: cell-based, human
# Cond: sequencing read counts; 5 days of growth (day seven after transduction)
Property: Perturb-seq pooled growth sgRNA counts, d5; scope: individual substances
Just the number.

Substance	Experimental Value
TUBB_+_30688126.23-P1_01: sgRNA targeting TUBB, GCAGCAGGAAGGTTCTGAGA, SEQ ID NO: 106 (listed as DNA, chemistry not fully specified)	1319
RPS15_−_1438413.23-P1P2_00: sgRNA targeting RPS15, GACCAAAGCGATCTCTTCTG, SEQ ID NO: 60 (listed as DNA, chemistry not fully specified)	2912
RPL9_+_39460483.23-P1P2_07: sgRNA targeting RPL9, GGATGTTTCTGCGCTCGTGG, SEQ ID NO: 54 (listed as DNA, chemistry not fully specified)	7867
COX11_+_53045977.23-P1P2_03: sgRNA targeting COX11, GGCTCTGTCGTCCTGGATGG, SEQ ID NO: 142 (listed as DNA, chemistry not fully specified)	16852

Then this substance:
So, ALDOA_+_30077139.23-P1P2_14: sgRNA targeting ALDOA, GGTCACCAGGACCGCTTCTG, SEQ ID NO: 159 (listed as DNA, chemistry not fully specified) ? Its Perturb-seq pooled growth sgRNA counts, d5 was 5347
